The measured values listed here are drawn from patent US20170267762A1.

measurement-target: T1, human PD-1 extracellular domain fused with human Fc tag (hPD-1-hFc) (human)
T1 construct: also called human PD-1-hFc
T1 sequence (chain, as listed by the source limits assumed): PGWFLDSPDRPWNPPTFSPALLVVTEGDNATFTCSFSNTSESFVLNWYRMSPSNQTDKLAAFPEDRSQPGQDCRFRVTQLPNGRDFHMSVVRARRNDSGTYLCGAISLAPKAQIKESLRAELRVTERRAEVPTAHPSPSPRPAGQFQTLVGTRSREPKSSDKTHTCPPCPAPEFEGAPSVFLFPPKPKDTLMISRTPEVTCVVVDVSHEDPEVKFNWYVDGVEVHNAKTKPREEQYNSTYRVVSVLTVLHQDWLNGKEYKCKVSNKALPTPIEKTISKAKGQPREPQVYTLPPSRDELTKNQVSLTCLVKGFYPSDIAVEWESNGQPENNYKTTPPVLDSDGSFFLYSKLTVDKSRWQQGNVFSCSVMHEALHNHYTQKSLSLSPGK
procedure-details: ELISA binding (summary table)
Protocol: ELISA binding analysis was conducted based on human PD-1-hFc Protein. 96-well plates (Costar, Cat No:9018) were coated with 100 μL of 2 μg/ml PD1-hFc (CrownBio) in coating buffer (PBS, Hyclone, Cat No:SH30256.01B) overnight at 4° C. […] The colorimetric signals were developed and read at 450 nm using a Auto Plate SpectraMax Plus (Supplier: Molecular Devices; Model: MNR0643; Software: SoftMax Pro v5.4). […]

# binder, measure-unit, EC50
rows = [
    ("5A8 murine anti-PD-1 antibody (antibody, V domains shown, Purified hybridoma antibody; also called 5A8-mIgG1) VH: QVQLQQSGDELVRPGTSVKMSCKAAGYTFTNNWIGWVKQRPGHGLEWIGDFYPGGGYTNYNEKFKGKATLTADTSSSTAYMQLSSLTSEDSAIYYCARGYGTNYWYFDVWGAGTTVTVSS VL: NIVMTQTPKILFISAGDRVTITCKASQSVSNDVAWYQQKPGQSPKLLIYYAFTRYIGVPDRFTGSGYGTDFTFTISTVQAEDLAVYFCQQDYSSPYTFGGGTKLEIKR", "µg/mL", 0.0112),
    ("7D3 murine anti-PD-1 antibody (antibody, V domains shown, Purified hybridoma antibody; also called 7D3-mIgG1) VH: EVKLVESGGGLVKPGGSLKLSCGASGFTFSSYGMSWVRQTPEKRLEWVATISGGGRDIYYPDSVKGRLTISRDNAKNNLYLQMSSLRSEDTALYYCVRQYYDDWFAYWGQGTLVTVSA VL: DIVLTQSPATLSVTPGDSVSLSCRASQSISNDLHWYQQKSHESPRLLIKYVSQSISGIPSRFSGSGSGTDFTLSINSVETEDFGMYFCQQSDSWPLTFGAGTKLELKR", "µg/mL", 0.0244),
]
